The measurements presented in this section are drawn from PubChem BioAssay AID463173.

test system: DeltatarO mutant; test: S. aureus survival, RN4220 and DeltatarO strains – OD600, teichoic acid synthesis inhibitors, primary screen (AID 463173); conditions: S. aureus RN4220 wild type/DeltatarO growth, OD600, 18 h, hits give low values, screened at 18.75 µg/mL (by protocol)
Out of some 52,000 compounds screened, about 4,300 (8.3%) were called active. The sample holds actives, similar compounds and a random draw of the others, so the mix is not that of the screen.
parameter: survival (%)
Entry rule: numbers only, all in %.

Use these answered entries as a reference point.
COc1ccc(Oc2nc3c(c(=O)n(C)c(=O)n3C)n2Cc2ccccc2Cl)cc1 :: 54
CN(Cc1ccccc1)C(=O)c1cc(-c2cccc(Cl)c2)on1 :: -15
COc1ccc(-c2csc(-c3c(N)c(C(=O)c4ccccc4)n4ccccc34)n2)cc1 :: 77
COCCNC(=O)c1cc(-c2cccc(Cl)c2)on1 :: 134

Q: Given the entry CCOCCCn1c(SCC(=O)NCc2ccccc2)nc2c(sc3ccccc32)c1=O , report its measured survival.
A: -5

Q: Given the entry CCCCn1c(SCC(=O)c2ccccc2)nc2c(sc3ccccc32)c1=O , report its measured survival.
A: 17

Q: Given the entry CCOc1ccc(C(=O)Nc2ccc3nc(N(CC)CC)cc(C)c3c2)cc1 , report its measured survival.
A: 70

Q: Given the entry CC(C)CCSc1nc2c(c(=O)n(C)c(=O)n2C)n1Cc1ccccc1Cl , report its measured survival.
A: 34

Q: Given the entry COc1ccc(-c2csc(-c3c(N)c(C(=O)c4ccc(OC)c(OC)c4)n4ccccc34)n2)cc1 , report its measured survival.
A: 75

Q: Given the entry CCOCCCn1c(SCC(=O)OCC)nc2c(sc3ccccc32)c1=O , report its measured survival.
A: 124

Q: Given the entry CC(C)OCCCn1c(SCC(=O)c2ccccc2)nc2c(sc3ccccc32)c1=O , report its measured survival.
A: 88

Q: Given the entry Cc1ccc(Cl)cc1NS(=O)(=O)c1ccc2oc(=O)c3ncn(C)c3c2c1 , report its measured survival.
A: 124

Q: Given the entry CCOC(=O)Cn1c(=O)c2c(nc3n2CCN3c2ccc(CC)cc2)n(C)c1=O , report its measured survival.
A: 79

Q: Given the entry CCN(CC)c1cc(C)c2cc(NC(=O)c3cccc(F)c3)ccc2n1 , report its measured survival.
A: 42

Q: Given the entry CCN(CC)c1cc(C)c2cc(NC(=O)c3ccccc3Cl)ccc2n1 , report its measured survival.
A: 55

Q: Given the entry Cc1ccc(-c2cc(C(=O)N3CCCC3)no2)cc1 , report its measured survival.
A: 98

Q: Given the entry CCN(CC)C(=O)c1cc(-c2ccc(Cl)cc2)on1 , report its measured survival.
A: 36

Q: Given the entry Cn1c(=O)[nH]c(=O)c2c1nc(N1CCOCC1)n2Cc1ccccc1 , report its measured survival.
A: 167

Q: Given the entry Cn1c(=O)c2c(nc(N3CCOCC3)n2Cc2cccc(Br)c2)n(C)c1=O , report its measured survival.
A: 80
